Biological target: T1, HKU1 full length Spike (human coronavirus HKU1, UniProt Q5MQD0 13-1276)
T1 sequence: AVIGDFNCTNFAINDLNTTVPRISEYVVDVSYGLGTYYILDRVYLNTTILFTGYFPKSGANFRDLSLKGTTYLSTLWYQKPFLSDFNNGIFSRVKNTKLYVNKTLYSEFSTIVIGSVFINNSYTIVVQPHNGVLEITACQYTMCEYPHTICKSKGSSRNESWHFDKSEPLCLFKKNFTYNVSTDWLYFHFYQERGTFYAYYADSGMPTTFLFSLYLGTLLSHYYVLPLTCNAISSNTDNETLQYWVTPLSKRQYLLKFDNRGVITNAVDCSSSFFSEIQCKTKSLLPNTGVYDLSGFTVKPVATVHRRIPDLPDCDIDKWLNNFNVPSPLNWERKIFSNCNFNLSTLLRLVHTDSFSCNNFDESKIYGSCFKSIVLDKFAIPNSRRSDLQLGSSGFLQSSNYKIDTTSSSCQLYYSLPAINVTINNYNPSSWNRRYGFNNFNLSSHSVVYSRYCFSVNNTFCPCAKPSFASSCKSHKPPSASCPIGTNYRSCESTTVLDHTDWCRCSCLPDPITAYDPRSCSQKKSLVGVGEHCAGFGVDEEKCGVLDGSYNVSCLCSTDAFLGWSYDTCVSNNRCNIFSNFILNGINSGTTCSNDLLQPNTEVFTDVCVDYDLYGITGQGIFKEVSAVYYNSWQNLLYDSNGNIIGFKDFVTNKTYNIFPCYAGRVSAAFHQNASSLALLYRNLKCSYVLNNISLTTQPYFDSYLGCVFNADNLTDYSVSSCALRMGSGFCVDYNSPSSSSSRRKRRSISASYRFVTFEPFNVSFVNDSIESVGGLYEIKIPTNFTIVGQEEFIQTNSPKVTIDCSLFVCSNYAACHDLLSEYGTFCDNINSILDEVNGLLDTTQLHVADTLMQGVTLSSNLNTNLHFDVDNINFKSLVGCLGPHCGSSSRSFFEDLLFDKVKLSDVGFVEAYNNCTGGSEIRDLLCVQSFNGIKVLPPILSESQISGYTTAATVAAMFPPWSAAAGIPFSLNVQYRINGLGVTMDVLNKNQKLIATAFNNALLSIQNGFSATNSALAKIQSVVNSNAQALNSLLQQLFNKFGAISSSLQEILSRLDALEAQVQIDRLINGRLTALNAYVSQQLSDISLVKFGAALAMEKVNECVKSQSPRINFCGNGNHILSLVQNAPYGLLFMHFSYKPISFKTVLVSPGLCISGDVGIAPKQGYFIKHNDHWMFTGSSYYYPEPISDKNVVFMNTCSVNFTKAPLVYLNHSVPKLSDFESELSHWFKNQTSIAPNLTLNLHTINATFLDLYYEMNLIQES
measureName: median fluorescence intensity, fold over isotype control
Provide a numeric answer, followed by its unit.

mAb 1404 (antibody, V domains shown) VH: QITLKESGPTLVKPTQTLTLTCTFSGFSLSISGVGVGWLRQPPGKALEWLALIYWDDDKRYSPSLKSRLTISKDTSKNQVVLKMTNIDPVDTATYYCAHHSISTIFDHWGQGTLVTVSS VL: QSALTQPASVSGSPGQSITISCTATSSDVGDYNYVSWYQQHPGKAPKLMIFEVSDRPSGISNRFSGSKSGNTASLTISGLQAEDEADYYCSSYTTSSAVFGGGTKLTVLG | 0.94 fold over isotype

Reported median fluorescence intensity, fold over isotype control ( mAb 1135 (antibody, V domains shown) VH: EVQLVESGGGLVQPGRSLRLSCAASGLTFEDYAMHWVRQVPGKGLEWVSGISWNSGTIGYADSVKGRFIISRDNAKNSLYLQMRSLRAEDTALYYCAKDVGFGELLYYAFDIWGQGTMVTVSS VL: QSALTQPASVSGSPGQSITISCTGTSSDVGGYNYVSWYQQHPGKAPKLMIYDVSNRPSGVSNRFSGSKSGNTASLTISGLQAEDEADYYCSSYTSSSTVVFGGGTKLTVLG ) = 0.83 fold over isotype
